tested on: control Gram-negative E. coli 25922 strain; test: Antibacterial activity, microbroth dilution MIC, E. coli 25922; type: cell-based, Escherichia coli; settings: Escherichia coli; E. coli 25922, microbroth dilution; read-out: MIC, 25922

>  <COMPOUND>
CN(C)c1ccc(-c2[nH]c(=O)c(C(=O)O)cc2CN)cc1.Cl

>  <MIC>
12.5 to 150 µg/mL

$$$$
>  <COMPOUND>
CCc1cc(C(=O)O)c(=O)[nH]c1-c1ccc(N2CCC(OC)CC2)cc1

>  <MIC>
12.5 to 150 µg/mL

$$$$
>  <COMPOUND>
CCc1c(-c2ccc(N3CCC4(CCN(C)C4)C3)cc2)[nH]c(=O)c(C(=O)O)c1O (stereo not drawn)

>  <MIC>
< 1 µg/mL

$$$$
>  <COMPOUND>
CCc1c(-c2cnc(N3CCC(N(C)C)C3)cn2)[nH]c(=O)c(C(=O)O)c1O (stereo not drawn)

>  <MIC>
12.5 to 150 µg/mL

$$$$
>  <COMPOUND>
CCc1c(-c2ccc(N3CCC(C)(O)C3)cc2)[nH]c(=O)c(C(=O)O)c1O (stereo not drawn)

>  <MIC>
1 to 3.5 µg/mL

$$$$
>  <COMPOUND>
CCc1cc(C(=O)O)c(=O)[nH]c1-c1ccc(N2CCC(NCc3ccccc3)C2)cc1.Cl (stereo not drawn)

>  <MIC>
< 1 µg/mL

$$$$
>  <COMPOUND>
CN(C)c1ccc(-c2[nH]c(=O)c(C(=O)O)c(O)c2CC(O)CO)cc1 (stereo not drawn)

>  <MIC>
12.5 to 150 µg/mL

$$$$
>  <COMPOUND>
CCc1cc(C(=O)O)c(=O)[nH]c1-c1ccc(N2C[C@@H]3[C@@H](N)[C@@H]3C2)cc1

>  <MIC>
< 1 µg/mL

$$$$
>  <COMPOUND>
CCc1cc(C(=O)O)c(=O)[nH]c1-c1ccc(N2CC(NC(=O)OCc3ccccc3)C2)cc1

>  <MIC>
12.5 to 150 µg/mL

$$$$
>  <COMPOUND>
CCc1c(-c2ccc(N3CCCCC3)cc2F)[nH]c(=O)c(C(=O)O)c1O

>  <MIC>
12.5 to 150 µg/mL

$$$$
>  <COMPOUND>
CCc1c(-c2ccc(C)cc2)[nH]c(=O)c(C(=O)O)c1O

>  <MIC>
12.5 to 150 µg/mL

$$$$
>  <COMPOUND>
CCc1c(-c2ccc(N(C)C)c(C)c2)[nH]c(=O)c(C(=O)O)c1O

>  <MIC>
12.5 to 150 µg/mL

$$$$
>  <COMPOUND>
CCc1c(-c2ccc(N3C[C@@H](O)[C@@H](O)C3)cc2)[nH]c(=O)c(C(=O)O)c1O

>  <MIC>
3.5 to 12.5 µg/mL

$$$$
>  <COMPOUND>
CCc1c(-c2ccc(N3CCC(O)C3)cc2)[nH]c(=O)c(C(=O)O)c1O (stereo not drawn)

>  <MIC>
< 1 µg/mL

$$$$
>  <COMPOUND>
CCc1c(-c2ccc(N3CC4(CCNCC4)C3)cc2)[nH]c(=O)c(C(=O)O)c1O

>  <MIC>
12.5 to 150 µg/mL

$$$$
